system: giant foxtail (Setaria faberii); assay: Test A preemergence; format: in vivo; details: Setaria faberi, pre-emergence, 240 h, 125 g ai/ha, preemergence; 0 to 100 scale where 0 is no effect and 100 is complete control; approx. 10 d; read-out: Foxtail, Giant plant response rating
In this section, each of the compounds is paired with its reported pest or weed control at 125 g/ha.
Give just the numeric value; % need not be written.

# example entries with known answers
COMPOUND	ASSAY READOUT	RESULT UNIT	ASSAY RESULT
CN1C[C@H](c2ccc([Si](C)(C)C)cc2)[C@@H](C(=O)Nc2cccc(F)c2F)C1=O [Compound 1168]	pest or weed control at 125 g/ha	%	30
Cc1c(F)cccc1NC(=O)[C@H]1C(=O)NC[C@@H]1c1cc(F)c(F)c(F)c1 [Compound 1125]	pest or weed control at 125 g/ha	%	90
CN1C[C@H](c2ccc(F)c(Oc3ccccc3)c2)[C@@H](C(=O)Nc2ccccc2S(C)(=O)=O)C1=O [Compound 1143]	pest or weed control at 125 g/ha	%	80

Continue with the compound presented below.
(Q) Supply recorded pest or weed control at 125 g/ha for Cc1nc([C@H]2CNC(=O)[C@@H]2C(=O)Nc2cccc(F)c2F)cs1 [Compound 1180] here.
(A) 0
